method.notes: self-splicing fitness, log relative to wild type (ln ratio); higher = more splicing; Tetrahymena group I intron in knt gene, E. coli kanamycin selection, DiMSum; sequences stand for … in CUCUCU…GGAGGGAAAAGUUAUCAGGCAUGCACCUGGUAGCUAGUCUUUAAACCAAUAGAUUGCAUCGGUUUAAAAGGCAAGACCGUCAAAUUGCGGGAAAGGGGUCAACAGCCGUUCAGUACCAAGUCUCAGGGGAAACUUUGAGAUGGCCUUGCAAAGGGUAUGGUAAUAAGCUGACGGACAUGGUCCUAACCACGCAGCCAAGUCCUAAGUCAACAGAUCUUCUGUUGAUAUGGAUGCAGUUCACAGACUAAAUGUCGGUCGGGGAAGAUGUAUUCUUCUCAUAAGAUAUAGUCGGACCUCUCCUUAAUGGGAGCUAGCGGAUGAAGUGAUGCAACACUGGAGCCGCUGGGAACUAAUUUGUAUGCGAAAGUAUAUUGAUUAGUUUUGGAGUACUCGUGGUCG;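 also: selection with 25 µg/mL kanamycin versus none on LB agar overnight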
test.parameters: 37 °C
Rule: self-splicing fitness (ln) under -2 gives rule not met, otherwise rule met.

GAGUAGCAAUAUUACGAGUA ... rule met
CGGAAGCAAUAUUACGCCGC ... rule not met
CACUAGCAAUAUUACGUAGC ... rule not met

In: // inclusive: self-splicing fitness (ln) at least -2? input: `UCUGAGCAAUAUUACGGUGU`
Out: rule met

In: // next record `UGACAGCAAUAUUACGAAUC`
Out: rule met

In: // next record `CGUAAGCAAUAUUACGAUCG`
Out: rule met

In: // next record `AGAAAGCAAUAUUACGCGCG`
Out: rule met

In: // next record `ACAUAGCAAUAUUACGGUGG`
Out: rule not met

In: // next record `UGAGAGCAAUAUUACGAUCA`
Out: rule met
